Origin of values: patent US20200339625A1

- Test system: mice bearing PSMA-expressing LNCAP cancer xenografts
- TEST_SUMMARY: Biodistribution of 68Ga-labeled compounds
- Format: in vivo
- MEASUREMENT_PARAMETERS: 1 h post-injection
Below, each entry is listed with its recorded Seminal uptake.
Return type: number; implicit unit % ID/g.

• O=C([O-])CN1CCN(CC(=O)[O-])CCN(CC(=O)NCCCC[C@H](NC(=O)CNC(=O)CCc2ccccc2)C(=O)NC[C@H]2CC[C@H](C(=O)N[C@@H](Cc3ccc4ccccc4c3)C(=O)NCCCC[C@H](NC(=O)N[C@@H](CCC(=O)O)C(=O)O)C(=O)O)CC2)CCN(CC(=O)[O-])CC1.[68Ga+3] [^68Ga-HTK03082] = 0.81
• Cc1ccc(CCCC(=O)NCC(=O)N[C@@H](CCCCNC(=O)CN2CCN(CC(=O)[O-])CCN(CC(=O)[O-])CCN(CC(=O)[O-])CC2)C(=O)NC[C@H]2CC[C@H](C(=O)N[C@@H](Cc3ccc4ccccc4c3)C(=O)NCCCC[C@H](NC(=O)N[C@@H](CCC(=O)O)C(=O)O)C(=O)O)CC2)cc1.[68Ga+3] [^68Ga-HTK03090] = 0.90

According to the records, this compound Nc1ccc(CCCC(=O)NCC(=O)N[C@@H](CCCCNC(=O)CN2CCN(CC(=O)[O-])CCN(CC(=O)[O-])CCN(CC(=O)[O-])CC2)C(=O)NC[C@H]2CC[C@H](C(=O)N[C@@H](Cc3ccc4ccccc4c3)C(=O)NCCCC[C@H](NC(=O)N[C@@H](CCC(=O)O)C(=O)O)C(=O)O)CC2)cc1.[68Ga+3] [^68Ga-HTK03087] displays Seminal uptake of 2.40

----------
- Tested on: mice bearing PSMA-expressing LNCAP cancer xenografts
- TEST_SUMMARY: Biodistribution of 68Ga-labeled compounds
- Type: in vivo
- MEASUREMENT_PARAMETERS: 3 h post-injection
- Description: Imaging and biodistribution experiments were performed using NODSCID 1L2RyKO male mice. Mice were anesthetized by inhalation with 2% isoflurane in oxygen, and implanted subcutaneously with 1×10^7 LNCaP cells behind left shoulder. […] For biodistribution studies, the mice were injected with the radiotracer as described above. […] The collected organs/tissues were weighed and counted using an automatic gamma counter. […]
Below, each entry is listed with its recorded Tail uptake.
Return type: number; implicit unit % ID/g.

- O=C([O-])CN1CCN(CC(=O)[O-])CCN(CC(=O)NCCCC[C@H](NC(=O)CNC(=O)CCCc2ccc(Br)cc2)C(=O)NC[C@H]2CC[C@H](C(=O)N[C@@H](Cc3ccc4ccccc4c3)C(=O)NCCCC[C@H](NC(=O)N[C@@H](CCC(=O)O)C(=O)O)C(=O)O)CC2)CCN(CC(=O)[O-])CC1.[68Ga+3] [^68Ga-HTK03058]: 6.86

Moving on to another compound below.
According to the records, this compound COc1ccc(CCCC(=O)NCC(=O)N[C@@H](CCCCNC(=O)CN2CCN(CC(=O)[O-])CCN(CC(=O)[O-])CCN(CC(=O)[O-])CC2)C(=O)NC[C@H]2CC[C@H](C(=O)N[C@@H](Cc3ccc4ccccc4c3)C(=O)NCCCC[C@H](NC(=O)N[C@@H](CCC(=O)O)C(=O)O)C(=O)O)CC2)cc1.[68Ga+3] [^68Ga-HTK03086] displays Tail uptake of 1.50

----------
- Tested on: mice bearing PSMA-expressing LNCAP cancer xenografts
- TEST_SUMMARY: Biodistribution of 68Ga-labeled compounds
- Assay type: in vivo
- MEASUREMENT_PARAMETERS: 1 h post-injection
Classification field: enter t for Tumor:Blood ratio values not below 3, f for values below it.

Would you please look over these solved cases?
* COc1ccc(CCCC(=O)NCC(=O)N[C@@H](CCCCNC(=O)CN2CCN(CC(=O)[O-])CCN(CC(=O)[O-])CCN(CC(=O)[O-])CC2)C(=O)NC[C@H]2CC[C@H](C(=O)N[C@@H](Cc3ccc4ccccc4c3)C(=O)NCCCC[C@H](NC(=O)N[C@@H](CCC(=O)O)C(=O)O)C(=O)O)CC2)cc1.[68Ga+3] [^68Ga-HTK03086] | f
* CCCCCCC(NC(=O)C1CCC(CNC(=O)CN2CCN(CC(=O)[O-])CCN(CC(=O)[O-])CCN(CC(=O)[O-])CC2)CC1)C(=O)NCCCCC(NC(=O)NC(CCC(=O)O)C(=O)O)C(=O)O.[68Ga+3] (centres unmarked) [^68Ga-HTK03026] | t
* O=C([O-])CN1CCN(CC(=O)[O-])CCN(CC(=O)NCCCC[C@H](NC(=O)CNC(=O)CCCc2ccc(Cl)cc2)C(=O)NC[C@H]2CC[C@H](C(=O)N[C@@H](Cc3ccc4ccccc4c3)C(=O)NCCCC[C@H](NC(=O)N[C@@H](CCC(=O)O)C(=O)O)C(=O)O)CC2)CCN(CC(=O)[O-])CC1.[68Ga+3] [^68Ga-HTK03055] | f
* O=C([O-])CN1CCN(CC(=O)[O-])CCN(CC(=O)NCC2CCC(C(=O)NC(Cc3ccc4ccc5cccc6ccc3c4c56)C(=O)NCCCCC(NC(=O)NC(CCC(=O)O)C(=O)O)C(=O)O)CC2)CCN(CC(=O)[O-])CC1.[68Ga+3] (centres unmarked) [^68Ga-HTK03029] | t
* O=C([O-])CN1CCN(CC(=O)[O-])CCN(CC(=O)NCC2CCC(C(=O)NC(Cc3c4ccccc4cc4ccccc34)C(=O)NCCCCC(NC(=O)NC(CCC(=O)O)C(=O)O)C(=O)O)CC2)CCN(CC(=O)[O-])CC1.[68Ga+3] (centres unmarked) [^68Ga-HTK03041] | t
* O=C([O-])CN1CCN(CC(=O)[O-])CCN(CC(=O)NCCCC[C@H](NC(=O)CNC(=O)CCCc2ccc([N+](=O)[O-])cc2)C(=O)NC[C@H]2CC[C@H](C(=O)N[C@@H](Cc3ccc4ccccc4c3)C(=O)NCCCC[C@H](NC(=O)N[C@@H](CCC(=O)O)C(=O)O)C(=O)O)CC2)CCN(CC(=O)[O-])CC1.[68Ga+3] [^68Ga-HTK03089] | t
* O=C([O-])CN1CCN(CC(=O)[O-])CCN(CC(=O)NCCCC[C@H](NC(=O)CNC(=O)CCCc2ccc(F)cc2)C(=O)NC[C@H]2CC[C@H](C(=O)N[C@@H](Cc3ccc4ccccc4c3)C(=O)NCCCC[C@H](NC(=O)N[C@@H](CCC(=O)O)C(=O)O)C(=O)O)CC2)CCN(CC(=O)[O-])CC1.[68Ga+3] [^68Ga-HTK03085] | t
* Nc1ccc(CCCC(=O)NCC(=O)N[C@@H](CCCCNC(=O)CN2CCN(CC(=O)[O-])CCN(CC(=O)[O-])CCN(CC(=O)[O-])CC2)C(=O)NC[C@H]2CC[C@H](C(=O)N[C@@H](Cc3ccc4ccccc4c3)C(=O)NCCCC[C@H](NC(=O)N[C@@H](CCC(=O)O)C(=O)O)C(=O)O)CC2)cc1.[68Ga+3] [^68Ga-HTK03087] | t
* O=C([O-])CN1CCN(CC(=O)[O-])CCN(CC(=O)NCCCC[C@H](NC(=O)CNC(=O)CCCc2ccccc2)C(=O)NC[C@H]2CC[C@H](C(=O)N[C@@H](Cc3ccc4ccccc4c3)C(=O)NCCCC[C@H](NC(=O)N[C@@H](CCC(=O)O)C(=O)O)C(=O)O)CC2)CCN(CC(=O)[O-])CC1.[68Ga+3] [^68Ga-HTK03056] | t
* O=C([O-])CN1CCN(CC(=O)[O-])CCN(CC(=O)NCCCC[C@H](NC(=O)CNC(=O)CCCc2ccc(Br)cc2)C(=O)NC[C@H]2CC[C@H](C(=O)N[C@@H](Cc3ccc4ccccc4c3)C(=O)NCCCC[C@H](NC(=O)N[C@@H](CCC(=O)O)C(=O)O)C(=O)O)CC2)CCN(CC(=O)[O-])CC1.[68Ga+3] [^68Ga-HTK03058] | f

Input line: Could you please find out whether O=C([O-])CN1CCN(CC(=O)[O-])CCN(CC(=O)NCCCC[C@H](NC(=O)CNC(=O)CCCc2ccc(I)cc2)C(=O)NC[C@H]2CC[C@H](C(=O)N[C@@H](Cc3ccc4ccccc4c3)C(=O)NCCCC[C@H](NC(=O)N[C@@H](CCC(=O)O)C(=O)O)C(=O)O)CC2)CCN(CC(=O)[O-])CC1.[68Ga+3] [^68Ga-HTK03024] has Tumor:Blood ratio that meets 3 or exceeds it?
Output line: f

Input line: Could you please find out whether O=C([O-])CN1CCN(CC(=O)[O-])CCN(CC(=O)NCC2CCC(C(=O)NC(Cc3ccc4cc5ccccc5cc4c3)C(=O)NCCCCC(NC(=O)NC(CCC(=O)O)C(=O)O)C(=O)O)CC2)CCN(CC(=O)[O-])CC1.[68Ga+3] (centres unmarked) [^68Ga-HTK03027] has Tumor:Blood ratio that meets 3 or exceeds it?
Output line: t

Input line: Could you please find out whether Cc1ccc(CCCC(=O)NCC(=O)N[C@@H](CCCCNC(=O)CN2CCN(CC(=O)[O-])CCN(CC(=O)[O-])CCN(CC(=O)[O-])CC2)C(=O)NC[C@H]2CC[C@H](C(=O)N[C@@H](Cc3ccc4ccccc4c3)C(=O)NCCCC[C@H](NC(=O)N[C@@H](CCC(=O)O)C(=O)O)C(=O)O)CC2)cc1.[68Ga+3] [^68Ga-HTK03090] has Tumor:Blood ratio that meets 3 or exceeds it?
Output line: f

Input line: Could you please find out whether O=C([O-])CN1CCN(CC(=O)[O-])CCN(CC(=O)NCCCC[C@H](NC(=O)CNC(=O)CCc2ccccc2)C(=O)NC[C@H]2CC[C@H](C(=O)N[C@@H](Cc3ccc4ccccc4c3)C(=O)NCCCC[C@H](NC(=O)N[C@@H](CCC(=O)O)C(=O)O)C(=O)O)CC2)CCN(CC(=O)[O-])CC1.[68Ga+3] [^68Ga-HTK03082] has Tumor:Blood ratio that meets 3 or exceeds it?
Output line: t
